Below, each entry is listed with its recorded AC50.
biological target: UniProtKB Q06710; assay: inhibitors of PAX8-driven TPO luciferase reporter, dose response, RMG-I cells, cherry-pick (AID 687027); type: functional, cell-based;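 also: luciferase reporter driven by Pax8 target thyroperoxidase promoter measured by SteadyGlo luminescence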
Sequence (Q06710 whole entry): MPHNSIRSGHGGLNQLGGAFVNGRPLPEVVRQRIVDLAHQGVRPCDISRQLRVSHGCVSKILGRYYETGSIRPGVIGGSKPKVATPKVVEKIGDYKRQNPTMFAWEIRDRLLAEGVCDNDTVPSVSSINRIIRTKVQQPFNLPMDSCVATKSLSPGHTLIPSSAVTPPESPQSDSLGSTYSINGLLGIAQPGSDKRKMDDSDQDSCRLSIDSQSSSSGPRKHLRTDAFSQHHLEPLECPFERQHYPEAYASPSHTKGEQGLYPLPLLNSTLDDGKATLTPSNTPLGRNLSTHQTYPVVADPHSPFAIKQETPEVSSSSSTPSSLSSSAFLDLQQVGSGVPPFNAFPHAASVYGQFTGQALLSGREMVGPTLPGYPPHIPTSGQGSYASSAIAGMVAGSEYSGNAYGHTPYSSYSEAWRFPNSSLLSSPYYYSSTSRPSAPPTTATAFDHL
Activity calls are given as the source filed them. No rule for the calls is given here.

>  <compound>
Cc1ccc(S(=O)(=O)N(C)C[C@H]2OCCCC[C@H](C)Oc3ccc(NS(=O)(=O)c4ccc(Cl)cc4)cc3C(=O)N([C@@H](C)CO)C[C@@H]2C)cc1

>  <AC50>
6.7 µM (active)

$$$$
>  <compound>
Cc1ccccc1-c1ccc2c(c1)O[C@H](CN(C)C(=O)Nc1ccc(C(F)(F)F)cc1)[C@@H](C)CN([C@H](C)CO)S2(=O)=O

>  <AC50>
8 µM (active)

$$$$
>  <compound>
Cn1nnnc1Sc1ncnc2scc(-c3cccc(F)c3)c12

>  <AC50>
2.64 µM (active)

$$$$
>  <compound>
C[C@@H]1CCCCO[C@H](CN(C)Cc2ccc(C(F)(F)F)cc2)[C@H](C)CN([C@@H](C)CO)C(=O)c2cc(NS(=O)(=O)c3ccc(Cl)cc3)ccc2O1

>  <AC50>
5.9 µM (active)

$$$$
>  <compound>
O=C(CCl)/N=c1\sccn1Cc1cccc2ccccc12

>  <AC50>
0.572 µM (active)

$$$$
>  <compound>
CCCOc1ccc2[nH]c(C(=O)N/N=C/c3cc(OC)c(OC)c(OC)c3)cc2c1

>  <AC50>
2.89 µM (active)

$$$$
>  <compound>
C[C@H](CO)N1C[C@H](C)[C@@H](CN(C)Cc2ccc(Cl)c(Cl)c2)OCCCC[C@H](C)Oc2ccc(NC(=O)Nc3ccccc3)cc2C1=O

>  <AC50>
8.65 µM (active)

$$$$
>  <compound>
C[C@H](CO)N1C[C@H](C)[C@@H](CN(C)S(=O)(=O)c2ccc(Cl)cc2)OCCCC[C@H](C)Oc2ccc(NS(=O)(=O)c3ccccc3)cc2C1=O

>  <AC50>
6.52 µM (active)

$$$$
>  <compound>
COc1ccc2c(c1)C(C)=CC(C)(C)N2S(=O)(=O)c1ccc(Br)cc1

>  <AC50>
7.63 µM (active)

$$$$
>  <compound>
COc1ccc(C(=O)ON=C(N)c2ccccn2)cc1

>  <AC50>
8.88 µM (active)

$$$$
>  <compound>
C[C@H](CO)N1C[C@H](C)[C@H](CN(C)Cc2ccc(C(=O)Nc3ccccc3N)cc2)Oc2ccc(N(C)C)cc2C1=O

>  <AC50>
10.5 µM (active)

$$$$
>  <compound>
Nc1nc2c(ncn2[C@@H]2O[C@H](CO)[C@@H](O)[C@H]2O)c(=S)[nH]1

>  <AC50>
1.16 µM (active)

$$$$
>  <compound>
CC(=O)NC(CCc1ccc(Cl)c(Cl)c1)c1cccc(O)c(=O)c1 (centres undefined)

>  <AC50>
2.08 µM (active)

$$$$
>  <compound>
O=C(CN1C(=O)c2ccccc2S1(=O)=O)c1ccc2c(c1)OCCO2

>  <AC50>
1.64 µM (active)

$$$$

###

biological target: Genome polyprotein (dengue virus type 2, UniProt P29990); assay: Dengue-2 NS5 methyltransferase inhibitors, primary screen, biochemical, confirmation dose response (AID 588689); type: functional
Sequence (P29990 2492-3391 limits assumed): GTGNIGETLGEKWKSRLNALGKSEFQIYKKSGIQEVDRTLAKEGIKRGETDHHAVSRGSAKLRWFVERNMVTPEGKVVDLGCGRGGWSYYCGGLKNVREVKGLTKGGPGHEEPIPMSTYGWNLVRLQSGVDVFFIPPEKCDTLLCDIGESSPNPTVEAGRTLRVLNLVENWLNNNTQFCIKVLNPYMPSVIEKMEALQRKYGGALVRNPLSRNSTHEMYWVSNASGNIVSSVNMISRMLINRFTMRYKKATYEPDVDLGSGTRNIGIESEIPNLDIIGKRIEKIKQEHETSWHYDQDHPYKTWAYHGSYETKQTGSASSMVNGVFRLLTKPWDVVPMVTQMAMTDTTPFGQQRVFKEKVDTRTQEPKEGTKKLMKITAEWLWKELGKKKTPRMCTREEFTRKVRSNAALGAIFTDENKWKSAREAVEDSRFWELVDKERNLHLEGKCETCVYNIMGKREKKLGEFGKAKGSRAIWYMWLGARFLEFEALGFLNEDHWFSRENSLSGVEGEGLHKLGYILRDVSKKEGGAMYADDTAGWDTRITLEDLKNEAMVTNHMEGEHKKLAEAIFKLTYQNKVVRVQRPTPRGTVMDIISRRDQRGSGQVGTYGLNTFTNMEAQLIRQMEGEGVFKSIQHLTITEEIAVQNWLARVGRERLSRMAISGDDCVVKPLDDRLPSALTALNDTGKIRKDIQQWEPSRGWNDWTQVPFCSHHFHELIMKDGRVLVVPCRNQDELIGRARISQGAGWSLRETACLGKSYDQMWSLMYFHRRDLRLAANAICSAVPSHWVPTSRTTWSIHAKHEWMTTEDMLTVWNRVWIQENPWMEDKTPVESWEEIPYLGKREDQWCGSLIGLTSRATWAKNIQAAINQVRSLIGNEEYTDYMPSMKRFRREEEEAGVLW
Calls of active or inactive are those of the source. How the calls were made is not given here.
property-name: IC50

>  <compound>
Cc1sc(NC(=O)C2CCCCC2C(=O)O)c(C(N)=O)c1-c1ccc(C(C)(C)C)cc1 (stereo not drawn)

>  <property-name>
IC50

>  <value>
60.1 µM (active)

$$$$
>  <compound>
O=[N+]([O-])c1cc([N+](=O)[O-])c2c(Nc3ccccc3)n(-c3ccccc3)[n+]([O-])c2c1

>  <property-name>
IC50

>  <value>
30.9 µM (active)

$$$$
>  <compound>
Cc1nn(CCc2nc(-c3ccco3)cs2)c2nc(O)cc(C(F)(F)F)c12

>  <property-name>
IC50

>  <value>
> 100 µM (active)

$$$$
